experimental-target: Glycogen phosphorylase, muscle form (Oryctolagus cuniculus)
Sequence (P00489 whole entry): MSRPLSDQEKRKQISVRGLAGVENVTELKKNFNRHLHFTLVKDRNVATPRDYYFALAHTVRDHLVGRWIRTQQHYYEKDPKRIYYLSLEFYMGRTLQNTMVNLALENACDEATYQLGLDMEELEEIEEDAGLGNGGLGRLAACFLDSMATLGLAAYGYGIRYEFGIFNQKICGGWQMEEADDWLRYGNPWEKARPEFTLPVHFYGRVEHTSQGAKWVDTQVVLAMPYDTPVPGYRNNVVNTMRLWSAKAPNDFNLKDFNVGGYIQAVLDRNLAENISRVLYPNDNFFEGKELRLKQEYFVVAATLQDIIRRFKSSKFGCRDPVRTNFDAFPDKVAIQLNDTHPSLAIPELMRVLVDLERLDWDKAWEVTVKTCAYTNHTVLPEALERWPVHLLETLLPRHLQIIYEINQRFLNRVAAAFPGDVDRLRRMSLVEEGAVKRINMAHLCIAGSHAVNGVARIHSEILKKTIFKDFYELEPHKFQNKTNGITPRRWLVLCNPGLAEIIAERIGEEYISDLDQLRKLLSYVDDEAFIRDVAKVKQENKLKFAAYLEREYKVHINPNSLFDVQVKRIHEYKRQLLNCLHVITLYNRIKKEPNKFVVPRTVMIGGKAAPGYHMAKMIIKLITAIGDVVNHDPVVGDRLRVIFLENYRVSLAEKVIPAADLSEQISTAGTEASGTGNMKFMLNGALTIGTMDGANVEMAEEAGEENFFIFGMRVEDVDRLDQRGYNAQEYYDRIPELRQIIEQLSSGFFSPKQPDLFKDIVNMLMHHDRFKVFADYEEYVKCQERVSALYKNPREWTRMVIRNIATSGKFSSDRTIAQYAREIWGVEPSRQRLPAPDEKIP
test-readout: IC50 (µM)
The figure you give is taken to be in µM; do not add the unit.

# structure-string, readout-unit, numeric-value
data = [
    ("CC(=O)O[C@@H]1C[C@]2(C)[C@H]3CC=C4[C@@H]5CC(C)(C)CC[C@]5(C(=O)OCc5ccccc5)CC[C@@]4(C)[C@]3(C)CC[C@H]2C(C)(C)[C@H]1O", "µM", 80),
    ("CC1(C)CC[C@]2(C(=O)OCn3cccn3)CC[C@]3(C)C(=CC[C@@H]4[C@@]5(C)C[C@@H](O)[C@H](O)C(C)(C)[C@@H]5CC[C@]43C)[C@@H]2C1", "µM", 66),
    ("CC1(C)CC[C@]2(C(=O)OCC(=O)O)CC[C@]3(C)C(=CC[C@@H]4[C@@]5(C)C[C@@H](O)[C@H](O)C(C)(C)[C@@H]5CC[C@]43C)[C@@H]2C1", "µM", 1650),
    ("CC(=O)O[C@@H]1C[C@]2(C)[C@H]3CC=C4[C@@H]5CC(C)(C)CC[C@]5(C(=O)OCc5ccccc5)CC[C@@]4(C)[C@]3(C)CC[C@H]2C(C)(C)C1=O", "µM", 29),
]

Enter reported IC50 observed with Glycogen phosphorylase, muscle form (Oryctolagus cuniculus) for CC1(C)CC[C@]2(C(=O)OCc3ccccc3)CC[C@]3(C)C(=CC[C@@H]4[C@@]5(C)C[C@@H](O[Si](C)(C)C(C)(C)C)[C@H](O)C(C)(C)[C@@H]5CC[C@]43C)[C@@H]2C1
1710

Another compound: CC1(C)CC[C@]2(C(=O)OCCO)CC[C@]3(C)C(=CC[C@@H]4[C@@]5(C)C[C@@H](O)[C@H](O)C(C)(C)[C@@H]5CC[C@]43C)[C@@H]2C1
153

Next: CC1(C)CC[C@]2(C(=O)OCCCCBr)CC[C@]3(C)C(=CC[C@@H]4[C@@]5(C)C[C@@H](O)[C@H](O)C(C)(C)[C@@H]5CC[C@]43C)[C@@H]2C1
7

Entry to check: CC1(C)CC[C@]2(C(=O)OCc3ccccc3)CC[C@]3(C)C(=CC[C@@H]4[C@@]5(C)C[C@@H](O)C(=O)C(C)(C)[C@@H]5CC[C@]43C)[C@@H]2C1
29

Lookup CC1(C)CC[C@]2(C(=O)OCc3ccccc3)CC[C@]3(C)C(=CC[C@@H]4[C@@]5(C)C=C(O)C(=O)C(C)(C)[C@@H]5CC[C@]43C)[C@@H]2C1
30
